FYI, the data here is from PubChem BioAssay AID1159580.

# Measurement Protocol: chemical genetic growth profiling, strain panel (AID 1159580);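 further: tested at 20 µM; growth read once vehicle control cultures reached saturation at 30 °C; 1 = growth at the plate median or of vehicle wells; lower values mean less growth of the strain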
# Details: S. cerevisiae deletion strains, growth OD, locus YNL175C, strain NOP13
Screen size: about 5,500 compounds; about 2,000 (36%) were called active. Another 18% or so got no clear call; they are omitted. No stated cut-off is given here; in the data, active means normalized growth mostly below about 0.91 (no sharp cut-off); inconclusive means no clear call, values can overlap the other calls; inactive means mostly above about 0.92. This is one part of the list.
Pick from active, inactive when you respond.

-- ask Would you mind telling me which call this test gave O=[N+]([O-])c1ccc(O[C@@H]2O[C@H](CO)[C@@H](O)[C@H](O)[C@H]2F)c([N+](=O)[O-])c1 ?
-- reply inactive

-- ask Assay result, entry CCCCCCCCCCCCCCCC(=O)NCC(COP(=O)([O-])OCC[N+](C)(C)C)OCC (stereo unspecified) — outcome?
-- reply active

-- ask Outcome? Fc1ccc(C(OCCCc2cnc[nH]2)c2ccc(F)cc2)cc1
-- reply inactive

-- ask Please let me know the test result on file for CCn1cc(C(=O)O)c(=O)c2cc(F)c(N3CCNC(C)C3)c(F)c21 (stereo unspecified) .
-- reply inactive

-- ask Per the records of this test, what outcome belongs to O=C1CCC(N2C(=O)c3ccccc3C2=O)C(=O)N1 (stereo unspecified) ?
-- reply inactive

-- ask Hello, I am checking results. What call was entered for N=C(N)SCCc1cnc[nH]1 ?
-- reply inactive

-- ask Which outcome was entered for the molecule CNCCC(Oc1ccc(C(F)(F)F)cc1)c1ccccc1 (stereo unspecified) in this test?
-- reply inactive

-- ask Recorded test outcome, item Cc1ccc(C(=O)Nc2ccc(S(=O)(=O)O)c3cc(S(=O)(=O)O)cc(S(=O)(=O)O)c23)cc1NC(=O)c1cccc(NC(=O)Nc2cccc(C(=O)Nc3cc(C(=O)Nc4ccc(S(=O)(=O)O)c5cc(S(=O)(=O)O)cc(S(=O)(=O)O)c45)ccc3C)c2)c1
-- reply inactive

-- ask Per the assay record, what outcome was assigned to CNCC[C@H](Oc1ccc(C(F)(F)F)cc1)c1ccccc1 ?
-- reply inactive

-- ask Which outcome was assigned to O=C1NCC2(CCN(CCc3ccccc3)CC2)O1 in this test?
-- reply inactive

-- ask What was the test verdict on O=C(/C=C/c1ccc(O)c(O)c1)OCCc1ccccc1 ?
-- reply active

-- ask I would be grateful if you could indicate the recorded call for COc1ccc(C2CNC(=O)C2)cc1OC1CCCC1 (stereo unspecified) .
-- reply inactive

-- ask Which outcome did this test record for the molecule O=C(O)c1cc2cc(F)ccc2[nH]1 ?
-- reply inactive

-- ask Give the logged outcome of this assay for the following molecule: NCCCS(=O)(=O)O
-- reply inactive

-- ask Returns: the outcome recorded for CNCC[C@@H](Oc1ccc(C(F)(F)F)cc1)c1ccccc1 in this assay.
-- reply inactive

-- ask Test call, this molecule: c1ccc2c(c1)CCCC2C1=NCCN1 (stereo unspecified)
-- reply inactive

-- ask What was the test verdict on COC(=O)C1C(O)CCC2CN3CCc4c([nH]c5ccccc45)C3CC21 (stereo unspecified) ?
-- reply inactive

-- ask # outcome recorded in this test, key = OCc1cc(C(O)CNCCCCCCOCCCCc2ccccc2)ccc1O (stereo unspecified)
-- reply inactive

-- ask Identify the outcome logged in this assay for the molecule shown: OC(CN1CCN(c2cccc(Cl)c2)CC1)C(c1ccccc1)c1ccccc1 (stereo unspecified)
-- reply inactive

-- ask Record lookup: outcome of this test for CCCCCCCCCCCCCCCCCCNC(=O)OCC(COP(=O)([O-])OCC[n+]1ccsc1)OC (stereo unspecified) ?
-- reply inactive

-- ask Record lookup: outcome of this test for CC12NC(Cc3ccccc31)c1ccccc12 (stereo unspecified) ?
-- reply inactive

-- ask Please state the recorded outcome for this molecule: CN1C2CCC1CC(OC(c1ccccc1)c1ccccc1N)C2 (stereo unspecified)
-- reply inactive

-- ask Test call, this molecule: NCCS(=O)(=O)O
-- reply inactive

-- ask Identify the outcome logged in this assay for the molecule shown: Nc1ncnc2c1ncn2C1OC2COP(O)(=S)O[C@@H]2[C@@H]1O (stereo partly specified)
-- reply inactive

-- ask Please let me know the test result on file for CC#C[C@]1(O)CC[C@H]2[C@@H]3CCC4=CC(=O)CCC4=C3[C@@H](c3ccc(N(C)C)cc3)C[C@@]21C .
-- reply inactive

-- ask Check the results log: what was the call for C#CCN(C)Cc1ccccc1 ?
-- reply inactive

-- ask What did the test return for CCCCCCN(CCCCCC)C(=O)Cc1c(-c2ccc(F)cc2)[nH]c2ccccc12 ?
-- reply active

-- ask In this assay, the call recorded for CC1CC2C3CCC4=CC(=O)C=CC4(C)C3(F)C(O)CC2(C)C1(O)C(=O)CO (stereo unspecified) was what?
-- reply inactive

-- ask Dear colleague, could you share the recorded outcome for C[C@H](Cc1ccccc1)Nc1ncnc2c1ncn2[C@@H]1O[C@H](CO)[C@H](O)C1O (stereo partly specified) when you have a moment?
-- reply inactive

-- ask Outcome? Clc1cccc(N2CCNCC2)c1
-- reply inactive

-- ask Called result for Nc1cc(=O)[nH]c(N)n1
-- reply inactive

-- ask // outcome(item) with item = CC[C@@H]1C=C/C=C/C[C@H](C)[C@@H](O)[C@](C)(O)C(=O)[C@H](C)[C@@H](O)[C@H](C)C(=O)[C@H](C)[C@@H](O)[C@H](C)/C=C/C(=O)O[C@H]2[C@@H](C)[C@@H](CC1)O[C@@]1(CC[C@@H](C)[C@@H](CC(C)O)O1)[C@@H]2C (stereo partly specified)
-- reply inactive

-- ask What classification did NCCC(=O)NCCc1cnc[nH]1 end up with in this test?
-- reply inactive

-- ask Name the outcome recorded for Cc1ccccc1C(OCCN(C)C)c1ccccc1 (stereo unspecified) in the assay.
-- reply inactive

-- ask Record lookup: outcome of this test for CCCCNC(=O)NS(=O)(=O)c1ccc(C)cc1 ?
-- reply inactive

-- ask Per the assay record, what outcome was assigned to O=C(c1ccc(OCCN2CCCCC2)cc1)c1c(-c2ccc(O)cc2)sc2cc(O)ccc12 ?
-- reply inactive

---

# Measurement Protocol: chemical genetic growth profiling, strain panel (AID 1159580);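 further: tested at 20 µM; growth read once vehicle control cultures reached saturation at 30 °C; 1 = growth at the plate median or of vehicle wells; lower values mean less growth of the strain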
# Details: S. cerevisiae deletion strains, growth OD, locus YIR030C, strain dcg1, hits give low values
About 2,000 (36%) of roughly 5,500 compounds were called active. Roughly 18% stayed inconclusive and do not appear here. The list shows a part of the results.
Measured Parameter: normalized growth
Give the figure by itself; no unit, no explanation.

GET /value?item= CN(C)CCN(Cc1ccccc1)c1ccccn1 &field=normalized growth returns 0.994

Lab book: normalized growth of Cc1[nH]c2ccccc2c1CN(C)C noted as 0.99

// normalized growth value for COc1ccc2c(c1)OC/C(=C/c1ccc(OC)c(OC)c1)C2=O : 0.978

Entry C/C=C(\C)C(=O)O[C@H]1C[C@@H](OC(C)=O)[C@@]2(C(=O)OC)CO[C@@H]3C2[C@]12CO[C@](O)(C(=O)OC)[C@H]2[C@](C)(C12O[C@@]1(C)[C@H]1C[C@@H]2OC2OC=C[C@@]21O)[C@@H]3O (some centres undefined) , normalized growth reported as 0.997

normalized growth for Cc1ccc(S(=O)(=O)NC(=O)NN2CCCCCC2)cc1 is 0.978

The measured normalized growth associated with COc1cc2c(cc1OC)C(=O)c1ccc(OC)c(OC)c1OCC(=O)C2 reads 1

Lab note: O=C1c2ccc(O)cc2O[C@H](c2cc(O)c(O)c(O)c2)[C@H]1O gave normalized growth of 1.03

CN1CCC(OC(c2ccccc2)c2ccccc2)CC1 yielded normalized growth of 0.984

Sample CCCCNC(=O)NS(=O)(=O)c1ccc(C)cc1 ; normalized growth observed: 0.982

Record summary for COc1ccc2c(c1)OC/C(=C\c1ccc(OC)c(O)c1)C2=O : reported normalized growth = 0.854

Summary for this compound, CN(C)CCOC(c1ccc(Cl)cc1)c1ccccn1 (centres undefined) : normalized growth is 1.03

For record CC[C@H]1OC(=O)[C@H](C)[C@@H](O[C@H]2C[C@@](C)(OC)[C@@H](O)[C@H](C)O2)[C@H](C)[C@@H](O[C@@H]2O[C@H](C)C[C@H](N(C)C)[C@H]2O)[C@](C)(OC)C[C@@H](C)C(=O)[C@H](C)[C@@H](O)[C@]1(C)O the listed normalized growth is 0.999

# compound OCC(O)CN1CCN(c2ccccc2)CC1 (centres undefined) ; its normalized growth = 0.988

normalized growth in this record for CC[C@@]1(O)C[C@H](O[C@H]2C[C@H](N(C)C)[C@H](O)[C@H](C)O2)c2c(cc3c(c2O)C(=O)c2c(O)cccc2C3=O)[C@H]1C(=O)OC : 0.871

---

Field: normalized growth. Provide a value for each of the molecules that follow.
# Measurement Protocol: chemical genetic growth profiling, strain panel (AID 1159580);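 further: tested at 20 µM; growth read once vehicle control cultures reached saturation at 30 °C; 1 = growth at the plate median or of vehicle wells; lower values mean less growth of the strain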
# Details: S. cerevisiae deletion strains, growth OD, locus YGL086W, strain mad1, hits give low values
About 2,000 (36%) of roughly 5,500 compounds were called active. Inconclusive results (about 18%) are left out. The list shows a part of the results.
The answer should be written as a number, with no unit following it.

Noted for COc1ccccc1-c1coc2cc(O)ccc2c1=O : its normalized growth reads 1.01

Consider COc1ccc(C(c2ccc(OC)cc2)C(Cl)(Cl)Cl)cc1 . Its measured normalized growth is 1.02

For record Nc1nc(=S)c2[nH]cnc2[nH]1 the listed normalized growth is 0.997

The measured normalized growth associated with CN1CC(CO)=C[C@@H]2c3cccc4[nH]cc(c34)C[C@H]21 reads 1.01

The molecule listed as c1ccc2c(c1)CCCC2C1=NCCN1 (stereo not given) shows normalized growth equal to 0.998

Recorded normalized growth (molecule COC(=O)/C=C/C(C)=C/C=C/C(C)=C/C=C/C=C(C)/C=C/C=C(C)/C=C/C(=O)O ): 0.986

The value of normalized growth measured for the molecule C=C[C@@](C)(O)CCC1C(=C)C[C@H](O)C2C(C)(C)CCCC12C (stereo not given in full) turned out to be 1.02

Looking up COc1cc2c(cc1OC)C(=O)c1ccc(OC)c(OC)c1OCC(=O)C2 , I see its normalized growth listed as 1.02

Lab note: measured normalized growth of C=C[C@@](C)(O)CCC1C(=C)C[C@H](OC(C)=O)C2C(C)(C)CCCC12C (stereo not given in full) was 1.02

Entry COc1cc(CNC(=O)CCCC/C=C/C(C)C)ccc1O , normalized growth reported as 0.996

// recorded normalized growth for CC(C)NCC(O)COc1cccc2[nH]ccc12 (stereo not given) : 0.999

Measured normalized growth, COc1ccc(-c2coc3cc(O)ccc3c2=O)c(OC)c1 : 0.991

Lab book: normalized growth of Clc1ccc(C(c2ccc(Cl)cc2)C(Cl)(Cl)Cl)cc1 noted as 1.01

The molecule listed as COc1ccc(-c2coc3cc(O)ccc3c2=O)c(OC)c1O has a reported normalized growth of 0.971

GET /value?item= CNCCC(Oc1ccc(C(F)(F)F)cc1)c1ccccc1 (stereo not given) &field=normalized growth returns 1
